# Test system: A498 renal
# experimental.details: NCI tumour cell line growth inhibition, 48 h
attribute.measured: TGI

Consider the following illustrative entries.
Form field - read-out: TGI; system: A498 renal; submitted item: N#Cc1c(O)c(N=Nc2ccc(Cl)cc2)c(=O)n2c1[nH]c1ccccc12
> 100 µM

Same for COC(=O)C1=CN(C2CCCCC2)C2(c3ccccc3)c3ccccc3C(=O)OC(=O)C12 (stereo unspecified)
> 100 µM

Can you handle O=[N+]([O-])c1cc(Cl)ccc1OCc1ccccc1 next?
> 100 µM

Then this compound: O=C(O)CCc1c2ccc(=O)c(O)c-2oc2c(O)c(O)ccc12
> 100 µM

For COc1cc([C@@]23OC[C@@H]4[C@@H](OC[C@@H]42)c2cc4c(cc23)OCO4)cc(OC)c1OC then?
15.1 µM

Consider the additional compound presented here.
Give the reported TGI for O=C1NC(N2CCCCC2)=N/C1=C\c1ccccc1O (system: A498 renal).
> 100 µM
